The reported measurements were obtained from PubChem BioAssay (NCI).

Record form. Attribute: TGI. Fill in for each entry.
# Tested on: HL-60(TB) leukemia
# experiment.notes: NCI tumour cell line growth inhibition, 48 h

Ask: Entry c1ccc(-c2cc(-c3cc(-c4ccccn4)[nH]n3)n[nH]2)nc1 , system HL-60(TB) leukemia: what TGI was measured?
Reply: > 100 µM

Ask: Please tell me: TGI of O=[N+]([O-])c1cc(Cl)ccc1S(=O)(=O)c1ccccc1 , system HL-60(TB) leukemia?
Reply: > 100 µM

Ask: Kindly state the measured TGI obtained for COc1cc(CNC(=O)CCCCCCCC/C=C/Br)ccc1O with HL-60(TB) leukemia.
Reply: > 10 µM

###

# Tested on: SW-620 colon
# experiment.notes: NCI tumour cell line growth inhibition, 48 h
property.name: TGI

Ask: // lookup TGI for O=C1c2c(Br)sc(Br)c2[C@H]2NC(=S)O[C@@H]12
Reply: 11.3 µM

Ask: Item under review: O=C(c1cccs1)c1c(C(F)(F)F)n([O-])c2cc(F)c(F)cc2[n+]1=O . Reported TGI?
Reply: 4.09 µM

Ask: May I ask what TGI has been recorded for Nc1nc(=O)n(C2OC(CO)C(O)C2O)cc1F (stereo not given) ?
Reply: > 100 µM

Ask: Give its TGI value. Item: CCOC(=O)c1sc2nc(SC)nc(Nc3ccc(OC)c(OC)c3)c2c1N
Reply: > 100 µM

Ask: What TGI value was documented for this molecule, N/C(=N\C(=S)N1CCCCC1)N1CCCCC1 ?
Reply: > 100 µM

Ask: Given the entry COc1cc2cc(C(=O)O)[nH]c2cc1OCc1ccccc1 , report its measured TGI.
Reply: > 100 µM

Ask: Which TGI value is on record for OC[C@H]1CC(c2nn[nH]n2)[C@H](O)[C@@H]1O (stereo not given in full) ?
Reply: > 100 µM

Ask: I would be grateful if you could share the reported TGI for CC1CC(=O)C(C(O)CC2CC(=O)N(c3ccccc3)C(=O)C2)C(C)C1 (stereo not given) .
Reply: > 100 µM

Ask: What value of measured TGI is listed for Cc1ccc(S(=O)(=O)C2=c3ncccc3=C3C(=O)c4ccccc4C(=O)C32)cc1 (stereo not given) ?
Reply: > 100 µM

Ask: Given the molecule C=C(C)C1CC[C@]2(C(=O)O)CCC3(C)[C@H](CCC4[C@@]5(C)CC[C@H](OC6OC(CO)C(O)C6OC6OC(C)C(O)C(O)C6O)[C@@](C)(CO)C5CC[C@]43C)C12 (stereo not given in full) , what is its reported TGI?
Reply: > 100 µM

Ask: State the recorded TGI for this entry: N#Cc1c(N2CCOCC2)ncn(-c2ccccc2)c1=O
Reply: > 100 µM

Ask: Recorded TGI for C[n+]1c2ccccc2c(NC(CCC(N)=O)C(=O)O)c2ccccc21 (stereo not given) , please?
Reply: > 100 µM

Ask: Reported TGI, molecule Cn1ncc2c(NCCc3ccccc3)nc(Cl)nc21 : ____
Reply: 89.1 µM

Ask: Any idea what TGI was measured for CC(=O)O[C@H]1CCC2[C@@H]3CCC4C(=O)c5oncc5C[C@]4(C)C3CC[C@@]21C (stereo not given in full) ?
Reply: > 100 µM

Ask: Would you mind telling me what TGI value was observed for O=C(O)[C@@H]1C[C@@H](O)CN1 ?
Reply: > 100 µM

###

# Tested on: SF-295 CNS
# experiment.notes: NCI tumour cell line growth inhibition, 48 h
property.name: TGI

Ask: Value wanted: TGI (SF-295 CNS) of entry O=C1/C(=C\c2ccccc2)c2ccccc2N1Cc1ccccc1
Reply: 16.2 µM

Ask: Can you look up TGI on SF-295 CNS for Cc1c2n(c3ccccc13)CC1C2N(C)OC1(C)C (stereo not drawn) ?
Reply: > 100 µM

Ask: Notebook: pull reported TGI for SF-295 CNS, entry COC(CNC(=O)C(C)NC(=O)C(C)NC(=O)c1ccccc1)OC (stereo not drawn)
Reply: > 100 µM

###

Hi there, I'd appreciate the recorded TGI for every entry that follows.
# System: CCRF-CEM leukemia
# experiment.notes: NCI tumour cell line growth inhibition, 48 h

Ask: Requested read-out TGI, target or system CCRF-CEM leukemia, entry CCOC(=O)c1cc(C(=O)c2cc(OC)cc(OC)c2)n2ncccc12
Reply: > 100 µM

Ask: Request: TGI, test system CCRF-CEM leukemia, entry COc1cccc(/C=N/n2c(-c3ccccc3)n[nH]c2=O)c1
Reply: > 100 µM

Ask: API: value(readout=TGI, system=CCRF-CEM leukemia) for record C=CC(=O)Nc1cc2c(Nc3ccc(OCc4ccccn4)c(Cl)c3)ncnc2cc1OCCN1CCOCC1
Reply: > 100 µM

###

For each record, write down the corresponding TGI.
# System: PC-3 prostate
# experiment.notes: NCI tumour cell line growth inhibition, 48 h

Ask: Query (molecule): CC(C)CCNC(=O)c1ccc(CNC(=O)/C=C/c2ccc(-c3ccccc3[N+](=O)[O-])o2)cc1 ; field requested: TGI
Reply: > 100 µM

Ask: Entry CC(O[Si](C)(C)C(C)(C)C)[C@H](NC(=O)OCC(Cl)(Cl)Cl)C(=O)O (some centres undefined) : reported TGI = ?
Reply: > 100 µM

Ask: # input molecule: Cc1cc(S(=O)(=O)Nc2nc(N)n(C)n2)c(S)cc1Cl ; wanted: its TGI
Reply: > 10 µM

Ask: # get_value(readout='TGI', item= C=CCSc1n[nH]c(-c2cccs2)n1 )
Reply: > 100 µM

###

# Test system: BT-549 breast
# experiment.notes: NCI tumour cell line growth inhibition, 48 h
Would you kindly list TGI for each of these compounds?

Ask: Request the reported TGI associated with C=CC1=C(C)C2=NC1=CC1=NC(=C(CC)/C1=C/O)C=C1C=C3C(=O)C(C(=O)OC)C(=C4NC(=C2)C(C)C4CCC(=O)OC/C=C(\C)CCCC(C)CCCC(C)CCCC(C)C)C3=N1 (stereo not drawn) (tested in a mixture with another compound)
Reply: > 100 µM

Ask: Can you share its TGI? I mean this compound: CSC(=S)NN=C1CCCCC1
Reply: > 100 µM

Ask: // returns reported TGI for input COC(=O)C(Cc1ccccc1)NS(=O)(=O)c1ccc(-c2c3nc(c(-c4ccc(S(=O)(=O)NC(Cc5ccccc5)C(=O)OC)cc4)c4ccc([nH]4)c(-c4ccc(S(=O)(=O)NC(Cc5ccccc5)C(=O)OC)cc4)c4nc(c(-c5ccc(S(=O)(=O)NC(Cc6ccccc6)C(=O)OC)cc5)c5ccc2[nH]5)C=C4)C=C3)cc1 (stereo not drawn)
Reply: > 100 µM

###

# Test system: HT29 colon
# experiment.notes: NCI tumour cell line growth inhibition, 48 h
property.name: TGI

Ask: Endpoint output: TGI of O=C(Nc1ccc(-n2cc(-c3ccncc3)c(-c3ccc(Cl)c(O)c3)n2)cc1)c1cc(Cl)cc(Cl)c1 . Value?
Reply: > 23.6 µM

Ask: Would you mind telling me what TGI value was observed for CCOC(=O)Cn1nc2ccc(Nc3nc4ccccc4nc3C(=O)OCC)cc2n1 ?
Reply: > 100 µM

Ask: I would be grateful if you could share the reported TGI for Cc1cc(NC(=O)CCc2ccc(N3C(N)=NC(N)=NC3(C)C)cc2)ccc1S(=O)(=O)F .
Reply: > 100 µM

Ask: For the compound COC(=O)C(Cc1ccccc1)NS(=O)(=O)c1ccc(-c2c3nc(c(-c4ccc(S(=O)(=O)NC(Cc5ccccc5)C(=O)OC)cc4)c4ccc([nH]4)c(-c4ccc(S(=O)(=O)NC(Cc5ccccc5)C(=O)OC)cc4)c4nc(c(-c5ccc(S(=O)(=O)NC(Cc6ccccc6)C(=O)OC)cc5)c5ccc2[nH]5)C=C4)C=C3)cc1 (configuration not stated) , what TGI is on record?
Reply: > 100 µM

Ask: Param item = CCCCCN(CCCCC)C(=O)[C@@H](CCC(=O)OCc1ccccc1)NC(=O)c1cc2ccccc2[nH]1 ; retrieve measured TGI.
Reply: > 100 µM

Ask: Please look up its TGI: C=C(CO)CC(O)c1ccccc1 (configuration not stated)
Reply: > 100 µM

Ask: # input compound: CC(=O)Oc1ccc(-c2cc3ccccc3oc2=O)cc1OC(C)=O ; wanted: its TGI
Reply: > 100 µM

Ask: Any idea what its TGI is? The compound is CSC(=S)NN=C1CCCCC1
Reply: > 100 µM

Ask: For the compound O=C1c2cccc3c(N4CCN(c5ccc6c7c(cccc57)C(=O)N(CCN5CCNCC5)C6=O)CC4)ccc(c23)C(=O)N1CCN1CCNCC1 , what TGI is on record?
Reply: > 100 µM

Ask: What does the record list as TGI for COc1cc(CNC(=O)CCCCCCCC/C=C/Br)ccc1O ?
Reply: > 10 µM

Ask: Query (compound): COc1cc2cc(C(=O)N3CC(COS(C)(=O)=O)c4c3cc([N+](=O)[O-])c3ccccc43)[nH]c2c(OC)c1OC (configuration not stated) ; field requested: TGI
Reply: > 31.6 µM

Ask: Give the measured TGI of O=C(O)/C(=C\c1ccccc1)Cc1ccccc1 .
Reply: > 100 µM

Ask: May I ask what TGI has been recorded for COc1cccc(/C=N/n2c(-c3ccccc3)n[nH]c2=O)c1 ?
Reply: > 100 µM

Ask: Given the entry COC(=O)[C@]1(c2cc3ccccc3[nH]2)CC2CN(CC(=O)N(C)OC)C1C1OC(C)(C)OC21 (some centres not stated) , report its measured TGI.
Reply: > 100 µM

Ask: Given the entry COc1ccc(C2=C(OC(C)=O)c3cccn3-c3ccccc3S2)cc1 , report its measured TGI.
Reply: > 10 µM

Ask: Given the compound CC1=CCC2(C#N)CCC1C2=O (configuration not stated) , what is its reported TGI?
Reply: > 100 µM

Ask: Need TGI of C=CCCCC1(C)CCCCNC1=O (configuration not stated) , thanks.
Reply: > 10 µM
